biological target: human orexin-2 receptor (hOX2R) (Homo sapiens, UniProt O43614); assay: FLIPR Ca2+ Flux Assay, CHO cells expressing the human orexin-2 receptor; conditions: agonist 70 pM Ala-6,12 human orexin-A
Sequence (O43614 whole entry): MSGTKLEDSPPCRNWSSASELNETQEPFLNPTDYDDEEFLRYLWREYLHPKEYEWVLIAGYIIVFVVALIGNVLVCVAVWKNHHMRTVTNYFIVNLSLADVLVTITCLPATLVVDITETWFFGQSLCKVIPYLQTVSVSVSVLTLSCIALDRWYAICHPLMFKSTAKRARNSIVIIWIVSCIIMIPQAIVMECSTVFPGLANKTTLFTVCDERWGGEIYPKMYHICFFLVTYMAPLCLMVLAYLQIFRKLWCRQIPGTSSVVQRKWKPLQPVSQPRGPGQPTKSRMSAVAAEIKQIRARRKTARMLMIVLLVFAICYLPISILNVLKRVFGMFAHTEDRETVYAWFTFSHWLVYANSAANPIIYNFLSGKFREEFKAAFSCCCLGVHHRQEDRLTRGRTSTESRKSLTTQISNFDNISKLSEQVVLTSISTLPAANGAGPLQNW
pIC50: −log10 of the molar value.
reported metric: pIC50

Worked cases, answers included:
Cc1ccnc(O[C@@H]2CC[C@@H](C)N(C(=O)c3sccc3-c3ncccn3)C2)c1 | 7.77
Cc1ccnc(O[C@@H]2CC[C@@H](C)N(C(=O)c3ccsc3-n3nccn3)C2)c1 | 7.36

a = Cc1ccnc(O[C@@H]2CC[C@@H](C)N(C(=O)c3ccc(Cl)cc3-n3nccn3)C2)c1
b = Cc1ccnc(O[C@@H]2CC[C@@H](C)N(C(=O)c3ccc(F)cc3-c3nc(C)no3)C2)c1
Enquiry: // which entry reports the smaller pIC50, a or b ? To answer, give the label that identifies your chosen option.
Return: b

====

target: hOX1R (Homo sapiens); construct: expressed in transfected cells; host or cells: CHO cells (grown under G418); assay: FLIPR Ca2+ Flux Assay, CHO cells expressing the orexin-1 receptor; type: cell-based; settings: agonist 70 pM Ala-6,12 human orexin-A
reported metric: IC50 (nM)

Cc1ccnc(O[C@@H]2CC[C@@H](C)N(C(=O)c3ccc(Cl)cc3-n3nccn3)C2)c1 | 1620
Cc1ccnc(O[C@@H]2CC[C@@H](C)N(C(=O)c3ncccc3-n3nccn3)C2)c1 | 1770
Cc1ccnc(O[C@@H]2CC[C@@H](C)N(C(=O)c3ccc(F)cc3-n3nccn3)C2)c1 | 2290

1 = Cc1ccnc(O[C@@H]2CC[C@@H](C)N(C(=O)c3c(F)cccc3-n3nccn3)C2)c1
2 = Cc1ccnc(O[C@@H]2CC[C@@H](C)N(C(=O)c3nccnc3-c3ccccn3)C2)c1
3 = Cc1ccnc(O[C@@H]2CC[C@@H](C)N(C(=O)c3ccc(F)cc3-c3nc(C)no3)C2)c1
4 = Cc1ccnc(O[C@@H]2CC[C@@H](C)N(C(=O)c3ccc(F)cc3-c3ncccn3)C2)c1
Enquiry: Order the records so the highest IC50 appears first and the lowest last. Hello, could you send the labels back in the order asked? Thank you.
Return: 3, 2, 4, 1

====

molecular target: hOX1R (Homo sapiens, UniProt O43613); assay: FLIPR Ca2+ Flux Assay, CHO cells expressing the orexin-1 receptor; details: agonist 70 pM Ala-6,12 human orexin-A
Sequence (O43613 whole entry): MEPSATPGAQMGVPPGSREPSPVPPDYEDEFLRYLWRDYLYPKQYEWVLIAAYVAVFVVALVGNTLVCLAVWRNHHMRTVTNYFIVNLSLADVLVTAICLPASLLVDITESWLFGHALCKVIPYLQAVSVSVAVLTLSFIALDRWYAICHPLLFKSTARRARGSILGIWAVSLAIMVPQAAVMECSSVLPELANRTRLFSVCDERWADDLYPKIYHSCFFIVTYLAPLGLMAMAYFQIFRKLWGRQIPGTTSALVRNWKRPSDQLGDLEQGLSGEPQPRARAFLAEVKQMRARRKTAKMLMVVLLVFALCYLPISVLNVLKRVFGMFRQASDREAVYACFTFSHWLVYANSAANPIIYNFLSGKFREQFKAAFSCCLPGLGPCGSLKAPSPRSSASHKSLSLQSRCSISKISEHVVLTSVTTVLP
reported metric: IC50 (nM)

Cc1ccnc(O[C@@H]2CC[C@@H](C)N(C(=O)c3ccccc3C3(C#N)CC3)C2)c1 | 1210
Cc1ccnc(O[C@@H]2CC[C@@H](C)N(C(=O)c3ccsc3-n3nccn3)C2)c1 | 1670

====

target: human orexin-2 receptor (hOX2R) (Homo sapiens, UniProt O43614); assay: FLIPR Ca2+ Flux Assay, CHO cells expressing the human orexin-2 receptor; conditions: agonist 70 pM Ala-6,12 human orexin-A
reported metric: IC50 (nM)

Cc1ccnc(O[C@@H]2CC[C@@H](C)N(C(=O)c3ncccc3-n3nccn3)C2)c1 [Example 9] | 45

P = Cc1ccnc(O[C@@H]2CC[C@@H](C)N(C(=O)c3ccccc3C3(C#N)CC3)C2)c1 [Example 10]
Q = Cc1ccnc(O[C@@H]2CC[C@@H](C)N(C(=O)c3ccc(C)cc3-n3nccn3)C2)c1 [Example 7]
Enquiry: // which entry reports the smaller IC50, P or Q ? To answer, give the label that identifies your chosen option.
Return: P
(P: 28 nM, Q: 59 nM)
